test system: PEG-3; experiment: Peg3 promoter luciferase inhibitors, potency, dose response, cell-based, HeLa, CREF/GAPDH counter-screen panel (AID 624167); settings: HeLa PEG-Prom luciferase reporter, overnight, CREF/GAPDH counter-screens, run 1, dose range 1, individual replicate IC50 per panel
Measure: IC50 (µM)

| Molecule | Target system | Measure | Value unit | Result qualifier | Test result |
| --- | --- | --- | --- | --- | --- |
| CCCCN(C)C(=O)c1ccc(Nc2nc(C(N)CCc3ccccc3)cs2)nc1 (stereo not given) | PEG-3 | IC50 | µM | = | 27.6 |
| O=C1NC(=O)N(Cc2ccc(F)cc2)C(=O)/C1=C\C=C\c1ccco1 | PEG-3 | IC50 | µM | = | 16.8 |
| O=c1cc(-c2ccc(O)cc2)oc2ccc3ccccc3c12 | PEG-3 | IC50 | µM | = | 4.65 |
| CC(=O)OC1CC[C@]2(C#N)[C@H]3CC[C@]4(C)[C@H](C5C=CC(=O)O5)CCC4(O)C3CCC2(O)C1 (stereo not given in full) | PEG-3 | IC50 | µM | = | 9.87 |
| Cc1ccc(-n2c(N)c(C(=O)Nc3c(C)n(C)n(-c4ccccc4)c3=O)c3nc4ccccc4nc32)cc1 | PEG-3 | IC50 | µM | = | 9.84 |
| COc1ccc(Nc2oc(COc3ccccc3OC)nc2C#N)cc1 | PEG-3 | IC50 | µM | = | 5.83 |
| CC(C)Cc1ccc(C(C)C(N)=NCCc2ccccc2)cc1 (stereo not given) | PEG-3 | IC50 | µM | = | 12.2 |
| c1ccc(-c2cc(-c3ccccc3)[n+](-c3ccccc3)c(-c3ccccc3)c2)cc1 | PEG-3 | IC50 | µM | = | 10.7 |
| Cn1nnnc1Sc1ncnc2scc(-c3ccc4c(c3)OCO4)c12 | PEG-3 | IC50 | µM | = | 34.5 |
| Cc1ccc(-c2cc(-c3ccc(C)cc3)[n+](-c3ccccc3)c(-c3ccc(C)cc3)c2)cc1 | PEG-3 | IC50 | µM | > | 100 |

----------
test system: Rat fibroblasts (CREF); experiment: Peg3 promoter luciferase inhibitors, potency, dose response, cell-based, HeLa, CREF/GAPDH counter-screen panel (AID 624167); conditions: CREF/GAPDH counter-screens, run 1, dose range 1, individual replicate IC50 per panel

| Compound | Target system | Result qualifier | IC50 / nM |
| --- | --- | --- | --- |
| CCOc1ccc(NC(=O)c2ccccn2)cc1 | Rat fibroblasts (CREF) | = | 921 |
| O=C(CN1C(=O)c2ccccc2S1(=O)=O)c1ccc2c(c1)OCCCO2 | Rat fibroblasts (CREF) | = | 1070 |
| COc1ccc(OCc2cccc(C(=O)O)c2)cc1 | Rat fibroblasts (CREF) | = | 10200 |
| CCC(c1nnnn1-c1ccc2c(c1)OCCO2)N1CCC(n2c(=O)[nH]c3ccccc32)CC1 (stereo unspecified) | Rat fibroblasts (CREF) | > | 100000 |
| C[C@@H]1C[C@@H]([C@H](O)CC2CC(=O)NC(=O)C2)C(=O)[C@@H](C)C1 | Rat fibroblasts (CREF) | = | 1850 |
| Cc1ccc2nc(-c3ccccc3)cn2c1 | Rat fibroblasts (CREF) | = | 619 |

----------
system: Rat fibroblasts (CREF); experiment: Peg3 promoter luciferase inhibitors, potency, dose response, cell-based, HeLa, CREF/GAPDH counter-screen panel (AID 624167); details: CREF/GAPDH counter-screens, run 2, dose range 1, individual replicate IC50 per panel
pIC50: −log10 of the molar value.
// No strictly below 5 in pIC50; Yes otherwise

| Molecule | Label value |
| --- | --- |
| Cc1cc(NC(c2cccnc2)c2ccc3cccnc3c2O)no1 (stereo not given) | Yes |
| COc1ccc(NC(=O)c2cc(-c3ccccn3)nc3ccccc23)cc1S(=O)(=O)N(C)C | No |
| CCOc1ccc2nc(NC(=O)c3ccccn3)sc2c1 | Yes |
| COc1cccc(OC)c1C(=O)Nc1cc(C)nn1-c1nc2ccccc2[nH]1 | No |
| Cc1cc(S(=O)(=O)c2ccc(Cl)cc2)nc(S(=O)(=O)c2ccc(Cl)cc2)c1C#N | No |
| CCCC(=O)NC(c1ccc(Cl)cc1)c1ccc2cccnc2c1O (stereo not given) | No |

----------
tested on: Rat fibroblasts (CREF); test: Peg3 promoter luciferase inhibitors, potency, dose response, cell-based, HeLa, CREF/GAPDH counter-screen panel (AID 624167); conditions: CREF/GAPDH counter-screens, run 1, dose range 1, individual replicate IC50 per panel
Each entry below lists one item and its recorded IC50 value.

| Compound | Value unit | Result qualifier | IC50 |
| --- | --- | --- | --- |
| Cc1ccc2nc(-c3ccc(Br)cc3)cn2c1 | µM | = | 2.93 |
| C(=N\Nc1nc2ccccc2[nH]1)/c1ccccn1 | µM | = | 1.14 |
| N=c1n(CC(=O)c2ccc([N+](=O)[O-])cc2)c2ccccc2n1Cc1ccc(Cl)cc1 | µM | = | 26.4 |
| CC1=CC2C(C(O)CC3(C)C2CC(C)C32OCOC23COCO3)C2(C)C/C(=C\O)C(=O)C=C12 (stereo not given) | µM | = | 7.69 |
| CCCCC(=O)NC(c1ccccc1)c1ccc2cccnc2c1O (stereo not given) | µM | > | 100 |

----------
# pIC50 listing for each entry below
system: Rat fibroblasts (CREF); assay: Peg3 promoter luciferase inhibitors, potency, dose response, cell-based, HeLa, CREF/GAPDH counter-screen panel (AID 624167); conditions: CREF/GAPDH counter-screens, run 2, dose range 1, individual replicate IC50 per panel
pIC50: −log10 of the molar value.
Measure: pIC50

| Molecule | Result qualifier | Test result |
| --- | --- | --- |
| O=C(N/N=C\c1c(O)ccc2ccccc12)c1cncc(Br)c1 | = | 4.77 |
| CCN1C=CC(=C2C(=O)c3ccccc3C2=O)C=C1 | = | 6.12 |
| C(=N\Nc1nc2ccccc2[nH]1)/c1ccccn1 | = | 5.74 |
| Cc1ccc(-n2c(N)c(C(=O)Nc3c(C)n(C)n(-c4ccccc4)c3=O)c3nc4ccccc4nc32)cc1 | = | 4.31 |
| COCCCNC(=O)c1ccc(Cn2c(=O)c3ccccc3n(Cc3ccccc3C#N)c2=O)cc1 | < | 4.00 |
| Oc1c(I)cc(Cl)c2cccnc12 | = | 4.70 |
| COc1ccc(C(=O)NNC(=O)c2ccccn2)cc1 | = | 5.68 |
| CCCCCN1C=CC(=C2C(=O)c3ccccc3C2=O)C=C1 | = | 5.96 |
| COc1cccc(NC(=O)c2nc(S(C)(=O)=O)ncc2Cl)c1 | = | 5.08 |
| Cc1ccc(-c2cn3cc(C)ccc3n2)cc1 | = | 5.81 |
| O=C(Nc1cccc(C(=O)O)c1)Nc1ccc2c(c1)OCO2 | = | 4.68 |
| Brc1ccc(N=Nc2ccc3ccccc3n2)cc1 | = | 6.16 |
| CC(C)CCCCCCCCCCCCC(=O)NCC(=O)NC1C(O)C(O)C(Nc2ncnc3nc[nH]c23)OC1C(O)CO (stereo not drawn) | < | 4.00 |
| O=C(CNCCC1=CCCCC1)Nc1ccc(N2CCCCCC2)cc1 | = | 4.77 |
| Cc1cc(C(=O)CN2C(=O)c3ccccc3S2(=O)=O)c(C)n1-c1ccccc1 | = | 5.10 |
| CN(C)c1ccc(NC(=S)c2ccccn2)cc1 | = | 5.94 |
| CCCCCCCNC(=O)C1(CC2CC(c3cccc(Br)c3)=NO2)CCNCC1 (stereo not drawn) | = | 4.77 |
| O=C(NC1=NCCS1)C1COc2ccccc2O1 (stereo not drawn) | = | 4.80 |
| CC(/C=C/c1ccccc1)=N/NC(=O)c1cc([N+](=O)[O-])cc([N+](=O)[O-])c1 | < | 4.00 |
| CN(C)CCCN(C(=O)c1ccc(S(=O)(=O)N2CCc3ccccc3C2)cc1)c1nc2ccc(F)cc2s1 | = | 4.77 |
| O=C(Nc1nc2cc3c(cc2s1)OCCO3)c1ccco1 | = | 5.66 |
| COc1ccc(-c2nc(-c3ccccn3)no2)cc1 | = | 6.23 |
| Clc1cccc(-c2nc(-c3ccccn3)no2)c1 | = | 5.58 |

----------
target: PEG-3 (UniProt Q6IN02); experiment: Peg3 promoter luciferase inhibitors, potency, dose response, cell-based, HeLa, CREF/GAPDH counter-screen panel (AID 624167); conditions: HeLa PEG-Prom luciferase reporter, overnight, CREF/GAPDH counter-screens, mean of runs
Sequence (Q6IN02 whole entry, looked up): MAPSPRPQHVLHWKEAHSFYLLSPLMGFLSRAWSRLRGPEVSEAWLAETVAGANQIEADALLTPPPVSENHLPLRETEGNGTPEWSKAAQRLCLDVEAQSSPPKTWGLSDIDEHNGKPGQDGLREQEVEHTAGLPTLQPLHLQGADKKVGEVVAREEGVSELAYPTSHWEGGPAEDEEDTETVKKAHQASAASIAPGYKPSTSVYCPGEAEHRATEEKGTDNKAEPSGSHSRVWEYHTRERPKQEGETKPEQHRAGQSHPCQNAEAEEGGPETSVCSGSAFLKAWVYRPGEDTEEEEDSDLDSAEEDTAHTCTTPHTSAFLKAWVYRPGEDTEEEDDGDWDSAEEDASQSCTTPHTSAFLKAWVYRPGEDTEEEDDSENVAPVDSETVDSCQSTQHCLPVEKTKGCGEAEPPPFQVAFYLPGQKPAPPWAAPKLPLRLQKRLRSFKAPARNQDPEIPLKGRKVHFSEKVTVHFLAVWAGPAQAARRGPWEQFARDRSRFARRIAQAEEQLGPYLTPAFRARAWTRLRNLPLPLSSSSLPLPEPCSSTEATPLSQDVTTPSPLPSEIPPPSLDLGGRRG
Calls of active or inactive are those of the source.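 The calls were made as follows: active = mean IC50 for reducing PEG3 promoter reporter signal at or below a set limit, with IC50 above the limit in both counter screens; inactive = the rest, including counter screen hits.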

| Molecule | IC50 |
| --- | --- |
| Cc1nc(SCC(=O)Nc2nc3ccccc3s2)c(C#N)c(C)c1C | 4130 nM |
| CCOC(=O)c1c(C)[nH]c(C(=O)OCC(=O)Nc2sccc2C(N)=O)c1C | inactive |
| Cc1cc(C(=O)COC(=O)c2ccccc2O)c(C)n1CC1CCCO1 (centres undefined) | inactive |
| COc1ccc(C(=O)Nc2nc3ccccc3s2)c(OC)c1 | 1750 nM |
| COc1cccc2c1C(=O)c1c(O)c3c(c(O)c1C2=O)CC(O)(C(C)=NNC(=O)c1ccc(Cl)c(Cl)c1)CC3OC1CC(N)C(O)C(C)O1 (centres undefined) | 954 nM |
| C[C@@H]1O[C@@H](O[C@@H]2C=C3CCC4C(CC[C@]5(C)[C@@H](c6ccc(=O)oc6)CC[C@]45O)[C@@]3(C)CC2)[C@H](O)[C@H](O)[C@H]1O (some centres undefined) | 450 nM |
| CCCCCCCCNCCS(=O)(=O)NCc1ccc(OC)cc1 | 18000 nM |
| C(=NN1CCCCCC1)c1ccc2ccccc2n1 | inactive |
| CC(C)(C)c1ccc(OCCCNCc2ccccc2)cc1 | inactive |
